target-or-test-system: equine FcRn (large alpha subunit p51) / equine beta-2-microglobulin complex, biotinylated (equine) (UniProt P30441)
assay-protocol: SPR (Biacore), pH 6
observation-type: pKd
Interpret pKd as the negative base-10 log of the concentration measured in mol/L.

binder: equine IgG1 D312N (antibody, part only; not given: variable domains, not shown: another chain or arm of the molecule) constant: ASTTAPKVFALAPGCGTTSDSTVALGCLVSGYFPEPVKVSWNSGSLTSGVHTFPSVLQSSGFYSLSSMVTVPASTWTSETYICNVVHAASNFKVDKRIEPIPDNHQKVCDMSKCPKCPAPELLGGPSVFIFPPNPKDTLMITRTPEVTCVVVDVSQENPDVKFNWYMDGVEVRTATTRPKEEQFNSTYRVVSVLRIQHQNWLSGKEFKCKVNNQALPQPIERTITKTKGRSQEPQVYVLAPHPDELSKSKVSVTCLVKDFYPPEINIEWQSNGQPELETKYSTTQAQQDSDGSYFLYSKLSVDRNRWQQGTTFTCGVMHEALHNHYTQKNVSKNPGK
pKd: 7.65

Next item in the queue.
Please supply the value of reported pKd for the item equine IgG4 T286K (antibody, part only; not given: variable domains, not shown: another chain or arm of the molecule) constant: ASTTAPKVFPLASHSAATSGSTVALGCLVSSYFPEPVTVSWNSGALTSGVHTFPSVLQSSGLYSLSSMVTVPASSLKSQTYICNVAHPASSTKVDKKIVIKECNGGCPAECLQVGPSVFIFPPKPKDVLMISRTPTVTCVVVDVGHDFPDVQFNWYVDGVETHKATTEPKQEQFNSTYRVVSVLPIQHKDWLSGKEFKCKVNNKALPAPVERTISKPTGQPREPQVYVLAPHRDELSKNKVSVTCLVKDFYPTDIDIEWKSNGQPEPETKYSTTPAQLDSDGSYFLYSKLTVETNRWQQGTTFTCAVMHEALHNHYTEKSVSKSPGK
7.61
